This listing pairs sequences with measured protein stability index.
experiment: protein stability index of a GFP-peptide fusion (GPS, HEK-293T) (PSI 1-6); higher = more stable; conditions: treatment: DMSO; c terminus: a fixed tail appended;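 also: 24-mer peptide tiles fused after GFP, lentivirally expressed, FACS-sorted into six equal bins by GFP/DsRed ratio, decoded by Illumina sequencing, PSI is the read-weighted mean bin number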
quantity: protein stability index

>  <sequence_record>
GRLGRWLRSTRFSGSLDRLRETRV [PCDHGC5]

>  <measurement>
3.34

$$$$
>  <sequence_record>
NSNLEEPLNPKPHKKKSPGEKPHR [ZNF449]

>  <measurement>
5.47

$$$$
>  <sequence_record>
CALNALTTTVCLVAAALRYLQIFA [FAM189A2]

>  <measurement>
2.75

$$$$
>  <sequence_record>
LVEAGAHTDMTNKQNKTPLDKSTT [FEM1B]

>  <measurement>
5.34

$$$$
>  <sequence_record>
GRLYVHPDSPATGAHWMRQLVSFQ [TBX5]

>  <measurement>
2.32

$$$$
>  <sequence_record>
MAEQSDEAVKYYTLEEIQKHNHSK [CYB5A]

>  <measurement>
5.31

$$$$
>  <sequence_record>
PGKALGPAATMAVELHYEEGSPRN [C2CD2L]

>  <measurement>
4.81

$$$$
>  <sequence_record>
FQGQKTELNNCISMLVAGNDRVQT [TRIM63]

>  <measurement>
3.13

$$$$
>  <sequence_record>
SGSRVRVGFRLCNSTGGDCFYRGY [SCNN1D]

>  <measurement>
2.18

$$$$
>  <sequence_record>
LKEPLHKALQMLLSQPVTYQAFRE [BCL2L13]

>  <measurement>
2.76

$$$$
>  <sequence_record>
GVEPAPWAQLEAPARLLLQALQAG [FANCE]

>  <measurement>
2.89

$$$$

* * *

assay: protein stability index of a GFP-peptide fusion (GPS, HEK-293T) (PSI 1-6); higher = more stable; conditions: treatment: MLN4924 1 uM, 8 h; c terminus: a fixed tail appended
quantity: protein stability index

>  <sequence_record>
EEEGPSTFPDLESEFQAALSRKVA [MAGEA3]

>  <measurement>
5.12

$$$$
>  <sequence_record>
RGRAREREQLQAEASERFAAGYIQ [HES6]

>  <measurement>
4.57

$$$$
>  <sequence_record>
DGDIPNIPAEENASTSTPSSTLVR [FAM189A2]

>  <measurement>
5.55

$$$$
>  <sequence_record>
ERQLKVMASDHREALLDRESENAS [LRRC45]

>  <measurement>
5.33

$$$$
>  <sequence_record>
APAPSQVKSKAKKTVDKHSDEYKI [CEBPB]

>  <measurement>
5.37

$$$$
>  <sequence_record>
PIAPEVEDPEENPYGPPPDAVQTS [RBBP5]

>  <measurement>
5.54

$$$$
>  <sequence_record>
QELELVLMISENNFLFRNAASTLT [ANKRD40]

>  <measurement>
3.28

$$$$
>  <sequence_record>
FQGQKTELNNCISMLVAGNDRVQT [TRIM63]

>  <measurement>
3.41

$$$$
>  <sequence_record>
TSDLGTTDVQKKKLVDAIVSGDTS [RIPK4]

>  <measurement>
5.09

$$$$
>  <sequence_record>
TLIVVDASGLGLEITTQFLIYASY [SLC19A2]

>  <measurement>
3.32

$$$$
>  <sequence_record>
FSVAPHETQTQRGGEFQCGLEAAS [RNF180]

>  <measurement>
3.36

$$$$
>  <sequence_record>
TVQSRPRIDGKLDSPSRSPSKVEV [C2CD2L]

>  <measurement>
4.65

$$$$
>  <sequence_record>
AVAQTAHLPADSEVTLEANPTSAP [RSAD1]

>  <measurement>
5.35

$$$$
>  <sequence_record>
SSTKPPKSRRKAALSSPRSRKNAT [INTS3]

>  <measurement>
5.04

$$$$
>  <sequence_record>
GAEQPPDLHCVLVTNPHSSQWKDP [GADD45A]

>  <measurement>
4.44

$$$$
>  <sequence_record>
IFAWNKWIDIKQFVWYTPPTFMIA [STEAP1]

>  <measurement>
2.95

$$$$
>  <sequence_record>
ANWQPKVAPATWSAGVPPSAPLQG [SNAP91]

>  <measurement>
3.85

$$$$
>  <sequence_record>
NDNKVLRYLAVLESPIPEDKDRRF [EFHC1]

>  <measurement>
3.6

$$$$
